Molecular target: T1, recombinant protein His-fib-mfTL1A (Macaca fascicularis)
T1 construct: also called monkey TL1A; Macaca fascicularis TL1A
T1 chain: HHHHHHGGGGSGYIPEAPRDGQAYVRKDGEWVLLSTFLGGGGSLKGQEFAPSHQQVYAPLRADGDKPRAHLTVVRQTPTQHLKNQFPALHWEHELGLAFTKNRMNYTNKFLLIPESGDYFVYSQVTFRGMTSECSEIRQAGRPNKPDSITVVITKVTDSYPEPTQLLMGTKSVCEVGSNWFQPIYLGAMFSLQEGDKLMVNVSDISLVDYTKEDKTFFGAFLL
Assay: SPR, Biacore T200; antibody captured by anti-human IgG (Fc), TL1A as analyte; 1:1 model
TEST READOUT: koff

INSERT INTO results (binder, reported_result) VALUES
  ('anti-TL1A monoclonal antibody PRA023 (antibody, V domains shown) VH: QVQLVQSGAEVKKPGASVKVSCKASGFDIQDTYMHWVKQRPGQGLEWMGRIDPASGHTKYDPKFQVRVTITRDTSTSTVYLELSSLRSEDTAVYYCARSGGLPDVWGQGTTVTVSS VL: EIVLTQSPGTLSLSPGERATLSCRASSSVSYMYWYQQKPGQAPRPLIYATSNLASGIPDRFSGSGSGTDFTLTISRLEPEDFAVYYCQQWEGNPRTFGGGTKLEIK', '9.01e-05 s⁻¹'),
  ('anti-TL1A monoclonal antibody RVT-3101 (antibody, V domains shown) VH: QVQLVQSGAEVKKPGASVKVSCKASGYDFTYYGISWVRQAPGQGLEWMGWISTYNGNTHYARMLQGRVTMTTDTSTRTAYMELRSLRSDDTAVYYCARENYYGSGAYRGGMDVWGQGTTVTVSS VL: EIVLTQSPATLSLSPGERATLSCRASQSVSSYLAWYQQKPGQAPRLLIYDASNRATGIPARFSGSGSGTDFTLTISSLEPEDFAVYYCQQRSNWPWTFGQGTKVEIK', '4.51e-05 s⁻¹'),
  ('mouse anti-TL1A monoclonal antibody S9H9 (antibody, V domains shown) VH: QVQLKQSGAELVRPGTSVKISCKASGYAFTNYWLGWIKQRPGHGLEWIGDIHPGRGNIFYNEKFKGKATLTADKSSSTAYMQLSSLTSEDSAVYFCAEGYDTFDYWGQGTTLTVSA VL: DIVMTQSHKFMSTSVGDRVSITCKASQDVSTAVAWYQQKPGQSPKLLIYSASYRYTGVPDRFTGSGSGTDFTFTISSVQAEDLAVYYCQQHYSTPWTFGGGTKLEMKR', '0.000175 s⁻¹'),
  ('mouse anti-TL1A monoclonal antibody S4D3 (antibody, V domains shown) VH: QVQLKESGSDLATPGASVKLSCKVSGYTFTKYDINWVRQRPEQGLEWIGWIFPGDGRTDYNEKFKGKATLTIDTSSSTAYMQLSRLTSEDSAVYFCARYGYALDYWGQGTSVTVSS VL: DVVMTQTPLSLPVSLGDQASISCRSSQNIVHSNGDTYLEWFLQKPGQSPKLLIYKVSNRFSGVPDRFSGSGSGTDFTLKISRVEAEDLGVYYCFQGSHFPYTFGGGTKLEMKR', '6.31e-05 s⁻¹');
